- measurement_notes: A CellTox Green Cytotoxicity Assay to monitor cytotoxicity in HEK293 cells - 32 hour (AID 1224881); note: nearly all actives have a fitted effect of over 40% in size
- particulars: CellTox Green fluorescence; series mostly up to 76.8 µM
Results filed as inconclusive are left out. The source made the active and inactive calls. Calls come from the whole dose curve; as a rule, active = well fitted activation curve with a large enough effect in the repeat runs; inconclusive = weak or mixed curves; inactive = flat fitted curve, though single readings scatter.
Thanks in advance; please answer with one of these: active, inactive

# input Field: outcome | Entry: CCC1OCC(COc2ccc(Oc3ccccc3)cc2)O1 (stereo not given)
# output inactive

###

- measurement_notes: qHTS assay to identify small molecule agonists of the vitamin D receptor (VDR) signaling pathway - cell viability counter screen (AID 743224); note: nearly all actives have a fitted effect of over 50% in size
- particulars: VDR-bla HEK293T viability, CellTiter-Glo luminescence, 16 h; series mostly up to 62.6 µM
Inconclusive results are not listed. Activity calls are given as the source filed them. The call rests on the fitted dose curve; in most records, active means well fitted cell-killing curve with a large enough effect in the repeat runs; inconclusive means weak or mixed curves, or effect the other way; inactive means no such curve, though single readings can be large or run the other way.
Thanks in advance; please answer with one of these: yes (1) (active), no (0) (inactive)

Reference set (5 entries):
[[record]]
compound = "CCCCCCCCCCCCCCCS(=O)(=O)Oc1ccccc1"
label = "no (0)"

[[record]]
compound = "CCCN(CCC)c1c([N+](=O)[O-])cc(C(F)(F)F)c(N)c1[N+](=O)[O-]"
label = "yes (1)"

[[record]]
compound = "[Cl][Au]([Cl])[Cl]"
label = "yes (1)"

[[record]]
compound = "Cc1ccc(O)c2ncccc12"
label = "yes (1)"

[[record]]
compound = "Cc1cccc2c1cc1ccc3cccc4ccc2c1c34"
label = "no (0)"


# input Field: outcome | Entry: N#CC1(c2ccc(F)cc2)CCC(=O)CC1
# output no (0)

# input Field: outcome | Entry: CC(C)(C)C(=O)OCOC(=O)C1N2C(=O)CC2S(=O)(=O)C1(C)C (configuration not stated)
# output no (0)
